Tested on: THRa homodimer (NR concentration 90 nM)
Test: PBM binding z-score (relative to random genomic background probes); higher = stronger binding; sequences stand for … in GC…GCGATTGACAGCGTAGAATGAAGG
Response field class: string, computed from recorded PBM binding z-score by ranges low end = under -0.02, middle = from -0.02 up to 0.6, high end = 0.6 and over

[
  {
    "SEQUENCE STRING": "ATCTCTAGGTACAGATAGTTCAGTGAATGCAAAT",
    "CLASSIFICATION": "middle"
  },
  {
    "SEQUENCE STRING": "GCTATTAGTTGAGAGGGCAACCGAATGATTCTCG",
    "CLASSIFICATION": "low end"
  },
  {
    "SEQUENCE STRING": "CTCGAAAGGTCGTGCCCAGGTGAGTATACCAAAC",
    "CLASSIFICATION": "high end"
  },
  {
    "SEQUENCE STRING": "GGAACGAGGGCCAGTTGATAGCAGAGTTTGATGG",
    "CLASSIFICATION": "low end"
  },
  {
    "SEQUENCE STRING": "TTACCTAGGTGAAAGGTCGTTGATGCACGCCTTG",
    "CLASSIFICATION": "high end"
  },
  {
    "SEQUENCE STRING": "TGGCCTAGGTCATTCAGGGGCCAGTATAGAAAGC",
    "CLASSIFICATION": "middle"
  },
  {
    "SEQUENCE STRING": "ATCGAAAGGTCGGGGTGAGTATAGAGAAAGGGAA",
    "CLASSIFICATION": "high end"
  },
  {
    "SEQUENCE STRING": "ATATGTAGGTTAGCTGGGGTCATCCAGACTAGGC",
    "CLASSIFICATION": "high end"
  },
  {
    "SEQUENCE STRING": "TCGAGTAGGTTACCAATGAGGCATTCAGCTTTCT",
    "CLASSIFICATION": "low end"
  },
  {
    "SEQUENCE STRING": "GCTTACGGGGCAAAGGTTATAGCATGAATAGAAT",
    "CLASSIFICATION": "low end"
  },
  {
    "SEQUENCE STRING": "CCCTACGGGTCACTCCAGGTTATAGCATCGGAGT",
    "CLASSIFICATION": "middle"
  },
  {
    "SEQUENCE STRING": "ACAGCCAGGTGATGAAGGTAACTCAGGCTATCAT",
    "CLASSIFICATION": "middle"
  },
  {
    "SEQUENCE STRING": "CCTGCTAGGTTAATGGTCAGCTAAAGCAGCTCGC",
    "CLASSIFICATION": "low end"
  },
  {
    "SEQUENCE STRING": "TCTTGTAGATGAAGCAGGTTAAGAAAGCCTGAGT",
    "CLASSIFICATION": "low end"
  },
  {
    "SEQUENCE STRING": "TCTTGTAGATCAAGCAGGTTAAGAAGGCCTGAGT",
    "CLASSIFICATION": "low end"
  },
  {
    "SEQUENCE STRING": "CCTTATGGGTCACGAGGTTATAGCACGACGAGCG",
    "CLASSIFICATION": "high end"
  },
  {
    "SEQUENCE STRING": "CGTCAAAGTTCAACTAAGGTAACGTAGAGCACGC",
    "CLASSIFICATION": "high end"
  },
  {
    "SEQUENCE STRING": "GATACAGGGACAGCTAGAGGCCAGAGTATGGAAA",
    "CLASSIFICATION": "middle"
  },
  {
    "SEQUENCE STRING": "CAAACTAGGTCAAGAGCTCAAAGTCCGCTTCCCG",
    "CLASSIFICATION": "high end"
  },
  {
    "SEQUENCE STRING": "ATATGTAGGTTAAGTGTCATTCAGGTTGGTTCGC",
    "CLASSIFICATION": "high end"
  },
  {
    "SEQUENCE STRING": "TCTCGGAGGAGACGAAAGGTCAGAGCTCGACATC",
    "CLASSIFICATION": "middle"
  },
  {
    "SEQUENCE STRING": "CAAACTAGGTCACGAAAGGTGAAAGTCGAATGAC",
    "CLASSIFICATION": "high end"
  },
  {
    "SEQUENCE STRING": "AGTCAAAGTTCATCTAGGTAAGGTAAGATATGCT",
    "CLASSIFICATION": "high end"
  },
  {
    "SEQUENCE STRING": "CCAGACAGGTGAGAAGGTAACGCAGCCTCGATTA",
    "CLASSIFICATION": "middle"
  },
  {
    "SEQUENCE STRING": "TCAGACAGGTGCAGGTAACTCAGGTACGCAGTCG",
    "CLASSIFICATION": "middle"
  },
  {
    "SEQUENCE STRING": "AGTCAAAGTTCACTCGGTAACGTAAGATTCAGCT",
    "CLASSIFICATION": "middle"
  },
  {
    "SEQUENCE STRING": "TCATATAGTTAAAGGTGAAAGTCGAACGATATGA",
    "CLASSIFICATION": "low end"
  },
  {
    "SEQUENCE STRING": "CCATACGGGTCACTGACAGGTTATAGCATTTGGA",
    "CLASSIFICATION": "low end"
  },
  {
    "SEQUENCE STRING": "CCTATTAGTTGACCGTAAGGGCAACCGAAGCTCG",
    "CLASSIFICATION": "high end"
  },
  {
    "SEQUENCE STRING": "CCTAGTTGCTCAAGGTCACACACGCTATAGGTAC",
    "CLASSIFICATION": "high end"
  },
  {
    "SEQUENCE STRING": "ACTAGCAGGCCAAGGGTCACCCAAGATTAGTCCG",
    "CLASSIFICATION": "middle"
  },
  {
    "SEQUENCE STRING": "TCGAGTAGGTTAGGGGCATTAAGAATGGCGTCGA",
    "CLASSIFICATION": "middle"
  },
  {
    "SEQUENCE STRING": "TGTTGTAGATCAGCAGGTTAAGAAAGCTGGCCAA",
    "CLASSIFICATION": "low end"
  },
  {
    "SEQUENCE STRING": "AGTCAAAGTTCACTAGGTAACGTACGATTCAGCT",
    "CLASSIFICATION": "middle"
  },
  {
    "SEQUENCE STRING": "TCTAGTTGGTCACGGAGGTCACACAGGACGGGTA",
    "CLASSIFICATION": "high end"
  },
  {
    "SEQUENCE STRING": "AGAACGAGGGCAAGGAGTTGATAGCACGGGTGGC",
    "CLASSIFICATION": "low end"
  },
  {
    "SEQUENCE STRING": "GCTAGCAGGCCATATGGGTCACTCAATGACGGGC",
    "CLASSIFICATION": "low end"
  },
  {
    "SEQUENCE STRING": "ATATGTAGGTTATCGTGTCATTCAGTTTGCGCAT",
    "CLASSIFICATION": "middle"
  }
]
